# target-of-assay: T1, OX40 (antigen of the competitive ELISA of Example 5) (UniProt P43489 29-214)
# T1 sequence (looked up): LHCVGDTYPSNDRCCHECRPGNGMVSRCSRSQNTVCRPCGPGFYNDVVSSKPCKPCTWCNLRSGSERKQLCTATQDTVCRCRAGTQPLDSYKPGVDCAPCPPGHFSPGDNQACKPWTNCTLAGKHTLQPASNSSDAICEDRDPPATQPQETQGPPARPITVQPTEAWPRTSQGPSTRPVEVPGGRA
# test-name: competitive ELISA; competitor BMS-986178
This listing pairs binders with measured percentage of competition.
Use % as the unit, but write only the number.

Worked examples follow.
What does the data say about its percentage of competition? Entry: MAb049 (antibody, IgG1, V domains shown) VH: EVQLQQSGPELVKPGASVKISCKASGHTLTDYYMNWVKQSHGKSPEWIGDINPNNDGIDYNQKFRGKAILTVDKSSSSFYMELRSLTSEDSAVYYCVGFVRGYFVSWGQGTTLTVSS VL: DIQMTQTTSSLSASLGDRVTINCRASQDISNYLNWYQQKPDGTVKLLIYYTSRLRSGVPSRFSGSGSGTDYSLTINNLDQEDFATYFCQQGNTLPWTFGGGTKLEI 0

// repeat for MAb053 (antibody, IgG2c, V domains shown) VH: QVQLKQSGPGLVQPSQSLSIICTVSGFSLSDYGVMWVRQSPGKGLEWLGVIWSGGSTDYNAAFTSRLSISRDNSKRQVIFKMNSLQAEDTAIHYCVRETMDYWGQGTSVTVS VL: DIQMTQTTSSLSASLGDRVTISCRASQDISNYLNWYQQRPDGTVKRLIYYTSRLHSGVPSRFSGSGSGTDYSLTISSLEQEDIATYFCQQAHTLPWTFGGGTKLEIK and report 2

// repeat for MAb058 (antibody, IgG1, V domains shown) VH: EVQLQQSGPVLVKPGAAVKMSCKASGYIFTDYYIHWVKLSRGESLEWIGLINPYNGGTNYNQQFTGKATLTVDKSSSTAYVELNSLTSGDSAVYYCVRRTGYFDYWGQGTTLTVSS VL: DVVMTQTPLSLPVSLGDQASISCRSSQSLVHSNGNTYLHWYLQKPGQSPKLLIYKVSNRFSGVPDRFSGSGSGTDFTLKISRVEAEDLGVYFCSQTTHVPYTFGGGTKLEIK and report -4

More entries:
Record request: percentage of competition value, item MAb055 (antibody, IgG1, V domains shown) VH: QVQLKQSGPGLLQPSQSLSITCTVSGFSLDEYGVHWFRQSPGKGLEWLGVIWSGGSTDYNAAFISRLSIRKDNSKSQIFFNMNSLQADDTAIYYCVREEWEYWGQGTTLTVS VL: DIQMTQTTSSLSASLGDRVTISCRPSQDIDNYLNWFQQRPDGTIKLLIYYTSRLHSGVPSRFSGSGSGTDYSLTINNLEQEDIATYFCQQAHTLPYTFGGGTKLEIK 3

Next binder up: MAb064 (antibody, IgG2c, V domains shown) VH: QVQLKESGPGLVAPSQTLSITCSVSGFSLTNYAVSWVRQPPGKGLEWLGVMWGDGNTNYHSTLISRLSISKDNSKSQVFLKLNSLQTDDTATYYCARSSGWYFDVWGTGTTVTVSS VL: DIQMTQTTPSLSVTLGDRVTIRCRASQDINNYLNWYQQKPDGTVKLLIYYTSESRSGVPSRFSGSGSGTDYSLTISNLEQEDIATYFCQQGYALPPAFGGGTKLEIK 1

Then what about the binder MAb041 (antibody, IgG1, V domains shown) VH: EVQLVESGGGLVKPGGSLKLSCAVSGFTFSNSAMSWVRQTPEKRLEWVATITDGGDYTYYSDNVKGRFTISRDNAKNNLYLQMSHLKSEDTAMYYCVRGISYWGQGTLVTVS VL: DIVLTQSPASLAVSLGQRATISCRASKSVSTSSDSYMHWYQQKPGQPPKLLIKYASNLESGVPVRFSGSGSGTDFTLNIHPVEEEDAATYYCQHSREFPWTFGGGTKLEIK ? -6

Field entry: MAb033 (antibody, IgG1, V domains shown) VH: QVQLQQSGAELVRPGTAVRVSCKASGYAFTNYFIEWVKQRPGQGLEWIGVINPGSGDTYYSEKFQGKATLTADKSSSTAYMQLSSLTSEDSAVYFCAREDDYSWFTYWGQGTLVTVSA VL: DIVLTQSPASLAVSLGQRATISCRASENVDNYGISFMHWYRQKPGQPPKLLIYRASNLESGIPARFSGSGSRTDFTLTINPVETDDVATYYCQQSNKDPYTFGGGTKLEIK 81

Param item: MAb035 (antibody, IgG1, V domains shown) VH: QVQLQQSGAELVRPGASVTLSCKASDYTFTDYEMHWVYQTPVHGLEWIGAIDPETGGTAYNQKFKDKAILTADKSSNTAYMELRSLTSEDSAVYFCTKTGYQFDYWGQGTTLTVSS VL: DIVMTQSQKFMSTSVGDRVSVTCKASQNVGSNVAWYQQKPGQSPKALIYSASYRYSGVPDRFAGSGSGTDFTLTISNVQSEDLADYFCQQYNSHPYTFGGGTKLEIK 90
